- target system: T1, GST-MDM2 containing full-length human MDM2 (human, UniProt Q00987 1-491)
- T1 construct: mature; 'mature' stands for full-length; not shown: GST tag
- T1 sequence (Q00987 whole entry): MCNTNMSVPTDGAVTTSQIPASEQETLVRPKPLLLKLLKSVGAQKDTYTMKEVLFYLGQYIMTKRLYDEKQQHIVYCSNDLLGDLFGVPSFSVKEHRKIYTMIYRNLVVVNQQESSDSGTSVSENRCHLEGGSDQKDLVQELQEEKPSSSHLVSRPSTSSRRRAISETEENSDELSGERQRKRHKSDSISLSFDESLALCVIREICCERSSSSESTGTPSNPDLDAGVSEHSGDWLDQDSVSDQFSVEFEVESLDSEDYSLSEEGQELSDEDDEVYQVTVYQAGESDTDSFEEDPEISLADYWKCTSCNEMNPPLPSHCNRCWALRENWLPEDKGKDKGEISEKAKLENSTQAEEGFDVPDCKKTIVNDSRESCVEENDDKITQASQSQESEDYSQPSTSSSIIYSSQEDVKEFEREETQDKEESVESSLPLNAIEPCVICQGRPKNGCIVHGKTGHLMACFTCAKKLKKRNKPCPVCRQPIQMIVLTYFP
- procedure text: competition ELISA: peptide inhibits GST-MDM2 binding to coated His6-p53
pIC50: −log10 of the molar value. Numbered stars: 1 amine (or outer) side, 2 acyl side, 3 side chain; on linkers, the order of the positions; unused ones are H or OH. Bridge positions count the residues as written; N and C are the ends. Square brackets hold non-standard residues; d marks the D form. Ends that are not written are not given here. Biphenyl(4,4'-CH2)2 = c1cc(-c2ccc(C[*:2])cc2)ccc1C[*:1]
Short version: pIC50 at least 7 is fulfilled, less is not fulfilled.

Some entries whose results are on file:
Ac-LTFCHYWAQLCS-NH2 (linker 4-11 via Biphenyl(4,4'-CH2)2, Printed as LTFC'HYWAQLC'S (C' = Bph-linked cysteine)) [PDI analog 1a (Bph cross-linked L,L-dicysteine peptide)]	fulfilled
Ac-LTFCHYWAQLCS-NH2 (cysteine pairing not given here, not cross-linked; also called peptide 1) [PDI analog 1 (linear L,L-dicysteine peptide)]	fulfilled
Ac-LTF[dC]RYWARLCS-NH2 (linker 4-11 via Biphenyl(4,4'-CH2)2, Printed as LTFc'RYWARLC'S) [PDI analog 4a (Bph cross-linked D,L-dicysteine peptide, two arginines)]	not fulfilled
Ac-LTF[dC]HYWAQLCS-NH2 (linker 4-11 via Biphenyl(4,4'-CH2)2; SMILES CC(=O)N[C@@H](CC(C)C)C(=O)N[C@H](C(=O)N[C@@H](Cc1ccccc1)C(=O)N[C@@H]1CSCc2ccc(cc2)-c2ccc(cc2)CSC[C@@H](C(=O)N[C@@H](CO)C(N)=O)NC(=O)[C@H](CC(C)C)NC(=O)[C@H](CCC(N)=O)NC(=O)[C@H](C)NC(=O)[C@H](Cc2c[nH]c3ccccc23)NC(=O)[C@H](Cc2ccc(O)cc2)NC(=O)[C@H](Cc2c[nH]cn2)NC1=O)[C@@H](C)O, Printed as LTFc'HYWAQLC'S) [PDI analog 3a (Bph cross-linked D,L-dicysteine peptide)]	fulfilled

Does pIC50 meet or surpass 7 for LTF[dC]HYWAQLCS-NH2 (not fully specified (N-terminus); printed as LTFcHYWAQLCS; cysteine pairing not given here, not cross-linked; also called peptide 3) [PDI analog 3 (linear (D,L)-dicysteine peptide)] ?
fulfilled
